- study target: T1, recombinant human VEGF165 (Sino biological) (human, UniProt P15692-4 27-191)
- T1 construct: Sino Biological VEGF165 was used in the Octet assay
- T1 sequence (P15692 other isoform, or with tags, fused parts or gaps limits assumed): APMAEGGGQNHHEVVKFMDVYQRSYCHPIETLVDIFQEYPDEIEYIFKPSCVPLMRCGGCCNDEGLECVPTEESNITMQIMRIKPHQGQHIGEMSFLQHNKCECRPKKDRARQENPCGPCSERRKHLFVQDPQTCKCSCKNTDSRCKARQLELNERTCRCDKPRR
- test name: Octet red96E BLI, VEGF165 amine-coupled on AR2G sensor, antibody as analyte, 30 C
experimental endpoint: koff (s⁻¹)
Entry rule: numbers only, all in s⁻¹.

*Q* Could you share which koff value was measured for Lu007 (SEQ ID NO 33, SEQ ID NO 34) (antibody, V domains shown, Tested as a purified whole antibody, detected with anti-hIgG-Fc; also called variant ranibizumab; variant Lucentis) VH: EVQLVESGGGLVQPGGSLRLSCAASGYDFTHYGMNWIRQAPGKGLEWVGWINTYTGEPTYAADFKRRFTFSLDTSKSTVYLQMNSLRAEDTAVYYCAKYPHYYGTSHWYFDVWGQGTLVTVSS VL: DIQLTQSPSSLSASVGDRVTITCSASQDISNYLNWYQQKPGKAPKVLIYFTSSLHSGVPSRFSGSGSGTDFTLTISSLQPEDFATYYCQQYSTVPWTFGQGTKVEIKR ?
*A* 2.89e-06

Entry source: patent KR20220001106A
